Source listed as the supplement of paper PMC8149375.

Each entry below carries its reported GI50 of drug.
System: 786-O
Assay protocol: GI50 of drug in presence of dasatinib; higher = less potent
Stated conditions: treatment: drug + dasatinib (fixed dose, not stated); 5 days
Unit nM implied. Number only.

Compound	Unit label	GI50 of drug
CN(C)CC[C@H](CSc1ccccc1)Nc1ccc(S(=O)(=O)NC(=O)c2ccc(N3CCN(Cc4ccccc4-c4ccc(Cl)cc4)CC3)cc2)cc1[N+](=O)[O-] [ABT-737] + Cc1nc(Nc2ncc(C(=O)Nc3c(C)cccc3Cl)s2)cc(N2CCN(CCO)CC2)n1 [dasatinib]	nM	469
CC(=O)c1c(C)c2cnc(Nc3ccc(N4CCNCC4)cn3)nc2n(C2CCCC2)c1=O.Cl + Cc1nc(Nc2ncc(C(=O)Nc3c(C)cccc3Cl)s2)cc(N2CCN(CCO)CC2)n1 [dasatinib]	nM	174

So what GI50 of drug did Cc1ccccc1-n1c(Cn2cnc3c(N)ncnc32)nc2cccc(C)c2c1=O + Cc1nc(Nc2ncc(C(=O)Nc3c(C)cccc3Cl)s2)cc(N2CCN(CCO)CC2)n1 [dasatinib] get with 786-O?
5690

Kindly state the measured GI50 of drug obtained for COc1cc2c(Nc3ccc(Br)cc3F)ncnc2cc1OCC1CCN(C)CC1 [Vandetanib (Zactima)] + Cc1nc(Nc2ncc(C(=O)Nc3c(C)cccc3Cl)s2)cc(N2CCN(CCO)CC2)n1 [dasatinib] with 786-O.
5420

Kindly state the measured GI50 of drug obtained for Cc1cnc(Nc2ccc(OCCN3CCCC3)cc2)nc1Nc1cccc(S(=O)(=O)NC(C)(C)C)c1 + Cc1nc(Nc2ncc(C(=O)Nc3c(C)cccc3Cl)s2)cc(N2CCN(CCO)CC2)n1 [dasatinib] with 786-O.
492

Under 786-O: GI50 of drug value of Cn1c(=O)c(F)c(Nc2ccc(I)cc2F)c2c(=O)n(C[C@@H](O)CO)cnc21 [TAK-733] + Cc1nc(Nc2ncc(C(=O)Nc3c(C)cccc3Cl)s2)cc(N2CCN(CCO)CC2)n1 [dasatinib] ?
452

====

Test system: TK-10
Assay protocol: GI50 of drug in presence of dasatinib; higher = less potent
Stated conditions: treatment: drug + dasatinib (fixed dose, not stated); 5 days
Listing: GI50 of drug of selected compounds
Just the number in nM, nothing appended.

Compound	Target under test	Observed
Cc1c(CN2CCN(C(=O)[C@H](C)O)CC2)sc2c(N3CCOCC3)nc(-c3cnc(N)nc3)nc12 [GDC-0980 (RG7422)] + Cc1nc(Nc2ncc(C(=O)Nc3c(C)cccc3Cl)s2)cc(N2CCN(CCO)CC2)n1	TK-10	103
CC(C)n1nc(-c2cc3cc(O)ccc3[nH]2)c2c(N)ncnc21 [PP242] + Cc1nc(Nc2ncc(C(=O)Nc3c(C)cccc3Cl)s2)cc(N2CCN(CCO)CC2)n1	TK-10	253

Now let's try a different one.
Quick one: GI50 of drug for C#Cc1cccc(Nc2ncnc3cc(OCCOC)c(OCCOC)cc23)c1.Cl [Erlotinib HCl] + Cc1nc(Nc2ncc(C(=O)Nc3c(C)cccc3Cl)s2)cc(N2CCN(CCO)CC2)n1 ?
2440

====

Tested on: 786-O
Assay protocol: minimum viability across doses, drug + dasatinib, relative to DMSO (fraction); higher = less growth inhibition
Stated conditions: treatment: drug + dasatinib (fixed dose, not stated); 5 days
Cut-off 0.07 on minimum viability across doses: below means YES, at or above means NO.

Here's what some known entries look like.
Compound	Class name
OCCn1cc(-c2ccc3c(c2)CC/C3=N\O)c(-c2ccncc2)n1 [GDC-0879] + Cc1nc(Nc2ncc(C(=O)Nc3c(C)cccc3Cl)s2)cc(N2CCN(CCO)CC2)n1	NO
Cc1nc(N)sc1-c1ccnc(Nc2ccc(N3CCOCC3)cc2)n1 [CYC116] + Cc1nc(Nc2ncc(C(=O)Nc3c(C)cccc3Cl)s2)cc(N2CCN(CCO)CC2)n1	YES
CCCCOc1c(C(=O)c2c(F)cc(C)cc2F)cnc2[nH]ncc12 + Cc1nc(Nc2ncc(C(=O)Nc3c(C)cccc3Cl)s2)cc(N2CCN(CCO)CC2)n1	YES

Here is another compound to look at.
Is it true that minimum viability across doses reported for COc1cc(N2CCC(N3CCN(C)CC3)CC2)ccc1Nc1ncc(Cl)c(Nc2ccccc2S(=O)(=O)C(C)C)n1 [TAE684 (NVP-TAE684)] + Cc1nc(Nc2ncc(C(=O)Nc3c(C)cccc3Cl)s2)cc(N2CCN(CCO)CC2)n1 is less than 0.07?
NO
